These entries and their values trace back to patent US20230073274A1.

study_target: human properdin (human, UniProt P27918 28-469)
Sequence (P27918 28-469 limits assumed): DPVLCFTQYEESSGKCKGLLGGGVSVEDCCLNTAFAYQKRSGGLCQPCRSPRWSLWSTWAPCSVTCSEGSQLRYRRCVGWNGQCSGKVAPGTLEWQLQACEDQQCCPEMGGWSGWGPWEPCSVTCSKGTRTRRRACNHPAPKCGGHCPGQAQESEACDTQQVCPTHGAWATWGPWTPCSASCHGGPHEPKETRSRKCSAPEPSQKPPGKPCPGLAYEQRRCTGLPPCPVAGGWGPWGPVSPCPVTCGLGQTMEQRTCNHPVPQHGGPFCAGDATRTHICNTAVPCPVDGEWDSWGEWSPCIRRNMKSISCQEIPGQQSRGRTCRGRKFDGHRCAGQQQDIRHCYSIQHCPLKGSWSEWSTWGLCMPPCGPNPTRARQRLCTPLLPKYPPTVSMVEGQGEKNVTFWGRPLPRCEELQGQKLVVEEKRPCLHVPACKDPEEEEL
assay_summary: cell-based or functional assay

binder	units_of_measure	MAC (µg/Ml); inhibition of MAC formation
NMT18 (antibody, V domains shown) VH: EVQLVQSGAEVKKPGASVKVSCKASGYIFTNYPIHWVRQAPGQGLEWMGFIDPGGGYDEPDERFRDRVTMTADTSTSTAYMELSSLRSEDTAVYYCARRGGGYYLDYWGQGTTVTVSS VL: DIQMTQSPSSLSASVGDRVTITCRASQDISFFLNWYQQKPGKAPKLLIYYTSRYHSGVPSRFSGSGSGTDFTLTISSLQPEDFATYYCQHGQTLPWTFGQGTKLEIK	µg/mL	9
NMT20 (antibody, V domains shown) VH: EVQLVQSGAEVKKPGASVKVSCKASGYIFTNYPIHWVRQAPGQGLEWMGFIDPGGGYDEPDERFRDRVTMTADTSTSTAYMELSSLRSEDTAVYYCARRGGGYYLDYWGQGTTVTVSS VL: DIQMTQSPSSLSASVGDRVTITCRASQDISFFLNWYQQKPGKAPKLLIYYTSRYHSGVPSRFSGSGSGTDFTLTISSLQPEDFATYYCQHGSTLPYTFGQGTKLEIK	µg/mL	25
NMT16 (antibody, V domains shown) VH: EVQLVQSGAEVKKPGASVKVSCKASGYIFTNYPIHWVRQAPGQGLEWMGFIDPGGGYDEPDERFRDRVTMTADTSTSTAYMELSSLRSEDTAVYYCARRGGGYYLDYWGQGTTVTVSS VL: DIQMTQSPSSLSASVGDRVTITCRASQDISFFLNWYQQKPGKAPKLLIYYTSRYHSGVPSRFSGSGSGTDFTLTISSLQPEDFATYYCQHGNTLPWTFGQGTKLEIK	µg/mL	3
NMT15 (antibody, V domains shown) VH: QVQLVQSAPEVAKPGTSVKMSCKASGYIFTNYPIHWVKQAPGQGLEWIGFIDPGGGYDEPDERFRDRATLTADKSTSTAYMELSSLRSEDTAIYYCARRGGGYYLDYWGQGTLVTVSS VL: DIQMTQSPSSLSASLGDRVTITCRASQDISFFLNWYQQKPDGTVKLLIYYTSRYHSGVPSRFSGSGSGTDFTLTISSLQPEDFATYFCQHGNTLPWTFGQGTKLEIK	µg/mL	1
NMT17 (antibody, V domains shown) VH: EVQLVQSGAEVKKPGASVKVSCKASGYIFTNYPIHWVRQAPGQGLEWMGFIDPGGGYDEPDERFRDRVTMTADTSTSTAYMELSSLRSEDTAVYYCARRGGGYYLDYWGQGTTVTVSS VL: DIQMTQSPSSLSASVGDRVTITCRASQDISFFLNWYQQKPGKAPKLLIYYTSRYHSGVPSRFSGSGSGTDFTLTISSLQPEDFATYYCQHGSTLPWTFGQGTKLEIK	µg/mL	5
NMT21 (antibody, V domains shown) VH: EVQLVQSGAEVKKPGASVKVSCKASGYIFTNYPIHWVRQAPGQGLEWMGFIDPGGGYDEYAQKFQGRVTLTADTSTSTAYMELSSLRSEDTAVYYCARRGGGYYLDYWGQGTTLTVSS VL: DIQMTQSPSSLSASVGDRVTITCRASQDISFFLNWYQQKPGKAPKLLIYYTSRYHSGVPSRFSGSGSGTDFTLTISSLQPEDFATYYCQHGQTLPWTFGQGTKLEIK	µg/mL	8
